- assay.target: APOL1 G1 Protein (Homo sapiens, UniProt O14791, I384M/S342G)
- Sequence (O14791 28-398 S342G/I384M): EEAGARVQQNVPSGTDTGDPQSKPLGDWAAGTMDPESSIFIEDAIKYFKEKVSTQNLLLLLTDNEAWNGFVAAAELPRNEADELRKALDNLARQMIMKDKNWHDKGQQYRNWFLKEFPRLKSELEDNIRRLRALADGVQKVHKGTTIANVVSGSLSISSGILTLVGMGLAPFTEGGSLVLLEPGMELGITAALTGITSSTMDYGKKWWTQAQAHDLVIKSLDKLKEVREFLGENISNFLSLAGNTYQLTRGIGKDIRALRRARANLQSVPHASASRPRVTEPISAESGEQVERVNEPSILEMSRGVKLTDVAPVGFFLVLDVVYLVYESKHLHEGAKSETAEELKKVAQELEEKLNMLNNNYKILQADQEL
- test.details: Trypanosoma brucei brucei Lysis Assay Using APOL1 Recombinant Protein (AlamarBlue viability)
- condition.info: read-out: Trypanosomal Assay (IC50)
Structures can show the parent of a compound that is named as a salt.
attribute.measured: IC50

Example entries begin here.
>>> print(df.to_string())
                                   compound  attribute_measured  assay_result
0  O=C1CCC(NC(=O)CCc2c(-c3ccc(F)cc3)[nH]c3c(F)cc(F)cc23)C(=O)N1 (centres unmarked) [Compound 190]                IC50     > 1000 nM
1  O=C(CCc1c(-c2ccc(F)cc2)[nH]c2ccc(F)cc12)N[C@H]1CNC[C@@H]1O [Compound 2, hydrochloride]                IC50     > 1000 nM
2  O=C(CCc1c(-c2ccc(F)cc2)[nH]c2c(F)cc(F)cc12)N[C@H]1CCOC1=O [Compound 187]                IC50      < 250 nM

Now look at this one.
Item: C[C@@H](CO)N(C)C(=O)CCc1c(-c2ccc(F)cc2)[nH]c2c(F)cc(F)cc12 [Compound 149] | IC50: > 1000 nM

Sourced from patent US20230014907A1
